Values from patent EP4624472A1

In this section, each of the compounds is paired with its reported DC50.
# SYSTEM_NAME: c-MET (Homo sapiens, UniProt P08581)
# Sequence (P08581 25-1390): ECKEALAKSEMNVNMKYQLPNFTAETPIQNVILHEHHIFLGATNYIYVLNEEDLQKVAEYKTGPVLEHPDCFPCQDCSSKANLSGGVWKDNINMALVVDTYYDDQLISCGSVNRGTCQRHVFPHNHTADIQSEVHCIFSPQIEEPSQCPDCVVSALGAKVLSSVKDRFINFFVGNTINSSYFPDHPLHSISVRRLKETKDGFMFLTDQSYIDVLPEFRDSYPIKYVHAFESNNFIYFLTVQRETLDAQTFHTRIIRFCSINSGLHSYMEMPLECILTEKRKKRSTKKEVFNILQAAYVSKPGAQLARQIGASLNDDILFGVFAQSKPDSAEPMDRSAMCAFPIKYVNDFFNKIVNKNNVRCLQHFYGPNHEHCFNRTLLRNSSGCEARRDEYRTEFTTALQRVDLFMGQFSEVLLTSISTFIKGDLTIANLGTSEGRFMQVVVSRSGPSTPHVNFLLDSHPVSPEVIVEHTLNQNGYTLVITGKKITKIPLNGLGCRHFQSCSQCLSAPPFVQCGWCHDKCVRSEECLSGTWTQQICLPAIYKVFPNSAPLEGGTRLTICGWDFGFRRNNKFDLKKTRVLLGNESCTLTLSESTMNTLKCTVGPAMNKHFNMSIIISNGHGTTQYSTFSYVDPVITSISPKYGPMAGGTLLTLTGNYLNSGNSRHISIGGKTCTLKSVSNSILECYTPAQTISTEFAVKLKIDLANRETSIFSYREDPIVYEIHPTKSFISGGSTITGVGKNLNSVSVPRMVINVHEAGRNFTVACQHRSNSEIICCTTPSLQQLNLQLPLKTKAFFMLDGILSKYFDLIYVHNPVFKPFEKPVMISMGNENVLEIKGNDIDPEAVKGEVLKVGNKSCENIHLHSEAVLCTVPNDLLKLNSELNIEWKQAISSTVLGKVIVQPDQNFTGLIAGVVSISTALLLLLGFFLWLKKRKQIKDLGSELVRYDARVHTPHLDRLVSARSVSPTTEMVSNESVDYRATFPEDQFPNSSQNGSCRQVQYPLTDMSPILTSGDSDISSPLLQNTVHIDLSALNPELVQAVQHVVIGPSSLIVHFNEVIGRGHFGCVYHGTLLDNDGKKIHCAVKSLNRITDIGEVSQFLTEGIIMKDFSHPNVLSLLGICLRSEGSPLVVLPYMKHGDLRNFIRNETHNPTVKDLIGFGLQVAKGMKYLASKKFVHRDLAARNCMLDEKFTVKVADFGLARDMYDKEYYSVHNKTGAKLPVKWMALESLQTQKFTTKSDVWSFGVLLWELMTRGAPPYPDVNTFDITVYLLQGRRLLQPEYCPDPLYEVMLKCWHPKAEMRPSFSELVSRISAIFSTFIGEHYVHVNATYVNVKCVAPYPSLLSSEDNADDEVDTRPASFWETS
# TEST_METHOD_NOTES: c-MET protein degradation (Simple Western) in SNU-638 cells
# Format: cell-based
# Set-up: To evaluate the degradation efficacy of the compounds of the present invention for c-MET expressed in cells; endogenous in cells
# COND: SNU-638, gastric cancer cell line treated 24 hours; c-MET expression normalized to GAPDH, 0.1% DMSO = 100%; read-out: In vitro cell viability assay (nM) SNU-638 DC50
MEASURED_QUANTITY: DC50

# COMPOUND, MEASURED_QUANTITY, RESULT
records = [
    ("N#Cc1cccc(-c2ccc(=O)n(Cc3cccc(-c4ncc(OCCN5CCN(c6ccc(NC7CCC(=O)NC7=O)cc6F)CC5)cn4)c3)n2)c1 (stereo not shown)", "DC50", "> 1000 nM"),
    ("Cn1cc(-c2cnc3c(nnn3C[C@@H]3CN(c4ncc(N5CC(CN6CCN(CC7CCN(c8ccc(NC9CCC(=O)NC9=O)cc8F)CC7)CC6)C5)cn4)CCO3)n2)cn1 (stereo partly shown)", "DC50", "> 1000 nM"),
    ("N#Cc1cccc(-c2ccc(=O)n(Cc3cccc(-c4ncc(OC[C@@H]5CN(c6ccc(NC7CCC(=O)NC7=O)cc6F)CCO5)cn4)c3)n2)c1 (stereo partly shown)", "DC50", "> 1000 nM"),
    ("Cc1nn(C2CCC(=O)NC2=O)c(=O)c2ccc(N3CCN(CC4CCN(CC5CN(c6cnc(N7CCO[C@H](Cn8nnc9nc(-c%10cnn(C)c%10)cnc98)C7)nc6)C5)CC4)CC3)cc12 (stereo partly shown)", "DC50", "≤ 1000 nM"),
    ("N#Cc1cccc(-c2ccc(=O)n(Cc3cccc(-c4ncc(OCCN5CCN(c6ccc7c(=O)n(C8CCC(=O)NC8=O)ncc7c6)CC5)cn4)c3)n2)c1 (stereo not shown)", "DC50", "> 1000 nM"),
    ("Cn1cc(-c2cnc3c(nnn3C[C@@H]3CN(c4ncc(N5CC(CN6CCN(c7ccc8c(=O)n(C9CCC(=O)NC9=O)ncc8c7)CC6)C5)cn4)CCO3)n2)cn1 (stereo partly shown)", "DC50", "> 1000 nM"),
    ("N#Cc1cccc(-c2ccc(=O)n(Cc3cccc(-c4ncc(N5CCN(CC6CN(c7ccc(NC8CCC(=O)NC8=O)cc7F)C6)CC5)cn4)c3)n2)c1 (stereo not shown)", "DC50", "≤ 100 nM"),
]

====

# SYSTEM_NAME: c-MET (Homo sapiens, UniProt P08581)
# TEST_METHOD_NOTES: c-MET protein degradation (Simple Western) in SNU-638 cells
# Type: cell-based
# Parameters: To evaluate the degradation efficacy of the compounds of the present invention for c-MET expressed in cells; endogenous in cells
# COND: SNU-638, gastric cancer cell line treated 24 hours; c-MET expression normalized to GAPDH, 0.1% DMSO = 100%; read-out: In vitro cell viability assay (nM) SNU-638 DC50
MEASURED_QUANTITY: DC50

# MOLECULE, RESULT
rows = [
    ("Cc1nn(C2CCC(=O)NC2=O)c(=O)c2ccc(N3CCN(CCOc4cnc(-c5cccc(Cn6nc(-c7cccc(C#N)c7)ccc6=O)c5)nc4)CC3)cc12 (stereo not drawn) [Example E-5]", "≤ 100 nM"),
    ("Cc1nn(C2CCC(=O)NC2=O)c(=O)c2ccc(N3CCO[C@@H](COc4cnc(-c5cccc(Cn6nc(-c7cccc(C#N)c7)ccc6=O)c5)nc4)C3)cc12 (stereo partly drawn) [Example E-1]", "> 1000 nM"),
    ("N#Cc1cccc(-c2ccc(=O)n(Cc3cccc(-c4ncc(N5CCN(CC6CCN(c7ccc(NC8CCC(=O)NC8=O)cc7F)CC6)CC5)cn4)c3)n2)c1 (stereo not drawn) [Example E-8]", "> 1000 nM"),
]

====

# SYSTEM_NAME: c-MET (Homo sapiens, UniProt P08581)
# TEST_METHOD_NOTES: c-MET protein degradation (Simple Western) in EBC-1 cells
# Type: cell-based
# Set-up: To evaluate the degradation efficacy of the compounds of the present invention for c-MET expressed in cells; endogenous in cells; host or cells: EBC-1 (human lung cancer cell line)
# COND: EBC-1, lung cancer cell line treated 48 hours; c-MET expression normalized to GAPDH, 0.1% DMSO = 100%; read-out: In vitro cell viability assay (nM) EBC-1 DC50
# Experimental: The c-MET overexpressing human gastric cancer cell lines MKN45 and SNU638 were cultured in RPMI medium with 10% fetal bovine serum, penicillin (100 U/ml), and streptomycin ([…]), and the c-MET exon 14 skipping mutant human gastric cancer cell line Hs746T was cultured in DMEM media. […] Protein expression was then measured using the Simple Western Automated Western Blot System Abby instrument using 3 µg of protein for each sample. […]

# COMPOUND, DC50
data = [
    ("N#Cc1cccc(-c2ccc(=O)n(Cc3cccc(-c4ncc(OC[C@@H]5CN(c6ccc(NC7CCC(=O)NC7=O)cc6F)CCO5)cn4)c3)n2)c1 (some centres unmarked)", "> 1000 nM"),
    ("Cc1nn(C2CCC(=O)NC2=O)c(=O)c2ccc(N3CCN(CC4CCN(CC5CN(c6cnc(N7CCO[C@H](Cn8nnc9nc(-c%10cnn(C)c%10)cnc98)C7)nc6)C5)CC4)CC3)cc12 (some centres unmarked)", "≤ 100 nM"),
    ("Cn1cc(-c2cnc3c(nnn3C[C@@H]3CN(c4ncc(N5CC(CN6CCN(c7ccc8c(=O)n(C9CCC(=O)NC9=O)ncc8c7)CC6)C5)cn4)CCO3)n2)cn1 (some centres unmarked)", "≤ 100 nM"),
    ("N#Cc1cccc(-c2ccc(=O)n(Cc3cccc(-c4ncc(N5CCN(CC6CN(c7ccc(NC8CCC(=O)NC8=O)cc7F)C6)CC5)cn4)c3)n2)c1 (centres unmarked)", "≤ 100 nM"),
    ("Cn1cc(-c2cnc3c(nnn3C[C@@H]3CN(c4ncc(N5CC(CN6CCN(CC7CCN(c8ccc(NC9CCC(=O)NC9=O)cc8F)CC7)CC6)C5)cn4)CCO3)n2)cn1 (some centres unmarked)", "> 1000 nM"),
]

====

# Test system: SNU-638
# TEST_METHOD_NOTES: In vitro cell viability assay (cancer cell anti-proliferative activity), SNU-638
# Assay type: cell-based, human
# COND: Homo sapiens; SNU-638 cells, treated 72 hours, absorbance at 450 nm; read-out: In vitro cell viability assay (IC50, nM) SNU-638
MEASURED_QUANTITY: IC50

# SMILES_NOTATION, SYSTEM_NAME, RESULT
rows = [
    ("CN1CCN(CC2CN(c3cnc(N4CCO[C@H](Cn5nnc6nc(-c7cnn(C)c7)cnc65)C4)nc3)C2)CC1", "SNU-638", "≤ 100 nM"),
    ("Cn1cc(-c2cnc3c(nnn3C[C@@H]3CN(c4ncc(N5CCN(CC6CN(C(=O)OC(C)(C)C)C6)CC5)cn4)CCO3)n2)cn1", "SNU-638", "≤ 100 nM"),
    ("Cn1cc(-c2cnc3c(nnn3C[C@@H]3CN(c4ncc(N5CC(CO)C5)cn4)CCO3)n2)cn1", "SNU-638", "≤ 100 nM"),
]

====

# SYSTEM_NAME: c-MET (Homo sapiens)
# TEST_METHOD_NOTES: c-MET protein degradation (Simple Western) in EBC-1 cells
# Assay type: cell-based
# Parameters: To evaluate the degradation efficacy of the compounds of the present invention for c-MET expressed in cells; endogenous in cells; host or cells: EBC-1 (human lung cancer cell line)
# COND: EBC-1, lung cancer cell line treated 48 hours; c-MET expression normalized to GAPDH, 0.1% DMSO = 100%; read-out: In vitro cell viability assay (nM) EBC-1 DC50
# Procedure: The c-MET overexpressing human gastric cancer cell lines MKN45 and SNU638 were cultured in RPMI medium with 10% fetal bovine serum, penicillin (100 U/ml), and streptomycin ([…]), and the c-MET exon 14 skipping mutant human gastric cancer cell line Hs746T was cultured in DMEM media. […] Protein expression was then measured using the Simple Western Automated Western Blot System Abby instrument using 3 µg of protein for each sample. […]
In this section, each of the molecules is paired with its reported DC50.
MEASURED_QUANTITY: DC50

# MOLECULE, MEASURED_QUANTITY, RESULT
records = [
    ("N#Cc1cccc(-c2ccc(=O)n(Cc3cccc(-c4ncc(OC[C@H]5CN(c6ccc7c(=O)n(C8CCC(=O)NC8=O)ncc7c6)CCO5)cn4)c3)n2)c1 (stereo partly drawn)", "DC50", "≤ 100 nM"),
    ("Cc1nn(C2CCC(=O)NC2=O)c(=O)c2ccc(N3CCO[C@@H](COc4cnc(-c5cccc(Cn6nc(-c7cccc(C#N)c7)ccc6=O)c5)nc4)C3)cc12 (stereo partly drawn)", "DC50", "≤ 100 nM"),
    ("N#Cc1cccc(-c2ccc(=O)n(Cc3cccc(-c4ncc(OCCN5CCN(c6ccc7c(=O)n(C8CCC(=O)NC8=O)ncc7c6)CC5)cn4)c3)n2)c1 (stereo not drawn)", "DC50", "≤ 100 nM"),
    ("N#Cc1cccc(-c2ccc(=O)n(Cc3cccc(-c4ncc(OCCN5CCN(c6ccc(NC7CCC(=O)NC7=O)cc6F)CC5)cn4)c3)n2)c1 (stereo not drawn)", "DC50", "> 1000 nM"),
    ("Cc1nn(C2CCC(=O)NC2=O)c(=O)c2ccc(N3CCN(CCOc4cnc(-c5cccc(Cn6nc(-c7cccc(C#N)c7)ccc6=O)c5)nc4)CC3)cc12 (stereo not drawn)", "DC50", "≤ 100 nM"),
    ("N#Cc1cccc(-c2ccc(=O)n(Cc3cccc(-c4ncc(N5CCN(CC6CCN(c7ccc(NC8CCC(=O)NC8=O)cc7F)CC6)CC5)cn4)c3)n2)c1 (stereo not drawn)", "DC50", "≤ 100 nM"),
]
